Parameter: kon. Scope: all listed entries.
Target: T1, Recombinant MBP-mutCALR Type 1 fusion protein (human)
T1 construct: custom made at Cepter; also called recombinant mutCALR protein
Assay: SPR, IgG captured, 1:1 fit, Exp. 1
Kindly answer with a numeric value in M⁻¹ s⁻¹, unit omitted.

INSERT INTO results (binder, numeric_value) VALUES
  ('anti-mutCALR antibody clone 1 (antibody, human IgG1, lambda, V domains shown, human IgG1) VH: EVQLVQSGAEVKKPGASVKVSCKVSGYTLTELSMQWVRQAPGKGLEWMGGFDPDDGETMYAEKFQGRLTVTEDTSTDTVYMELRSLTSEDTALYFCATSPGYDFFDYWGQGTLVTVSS VL: SYVLTQPPSVSVAPGKTARITCGGNYIGSKSVHWYQQKPGQAPVLVVYDDGDRPSGIPARFSGSNSGNTATLTISRVEAGDEADYYCQVWDSISDHVVFGGGTKLTVLG', '1.38e+06');

For the next question, use this binder.
In: Report kon for anti-mutCALR antibody clone 28 (antibody, human IgG1, lambda, V domains shown, human IgG1) VH: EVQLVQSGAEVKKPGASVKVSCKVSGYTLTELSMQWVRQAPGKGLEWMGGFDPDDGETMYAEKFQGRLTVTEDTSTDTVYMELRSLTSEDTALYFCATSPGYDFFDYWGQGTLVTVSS VL: SYELTQPPSVSVAPGQTARITCGGNNIGSKSVHWYQQKPGQAPVLVVYDDSDRPSGIPERFSGSNSGNTATLTISRVEAGDEADYYCQVWDADSDQLIFGGGTKLTVLG please.
Out: 460000
